For each entry below, report its Pyk2(h) % activity value.
Target: Pyk2(h) (Homo sapiens)
Construct: purchased Millipore (IC50 Profiler Express service)
Sequence (Q14289 whole entry): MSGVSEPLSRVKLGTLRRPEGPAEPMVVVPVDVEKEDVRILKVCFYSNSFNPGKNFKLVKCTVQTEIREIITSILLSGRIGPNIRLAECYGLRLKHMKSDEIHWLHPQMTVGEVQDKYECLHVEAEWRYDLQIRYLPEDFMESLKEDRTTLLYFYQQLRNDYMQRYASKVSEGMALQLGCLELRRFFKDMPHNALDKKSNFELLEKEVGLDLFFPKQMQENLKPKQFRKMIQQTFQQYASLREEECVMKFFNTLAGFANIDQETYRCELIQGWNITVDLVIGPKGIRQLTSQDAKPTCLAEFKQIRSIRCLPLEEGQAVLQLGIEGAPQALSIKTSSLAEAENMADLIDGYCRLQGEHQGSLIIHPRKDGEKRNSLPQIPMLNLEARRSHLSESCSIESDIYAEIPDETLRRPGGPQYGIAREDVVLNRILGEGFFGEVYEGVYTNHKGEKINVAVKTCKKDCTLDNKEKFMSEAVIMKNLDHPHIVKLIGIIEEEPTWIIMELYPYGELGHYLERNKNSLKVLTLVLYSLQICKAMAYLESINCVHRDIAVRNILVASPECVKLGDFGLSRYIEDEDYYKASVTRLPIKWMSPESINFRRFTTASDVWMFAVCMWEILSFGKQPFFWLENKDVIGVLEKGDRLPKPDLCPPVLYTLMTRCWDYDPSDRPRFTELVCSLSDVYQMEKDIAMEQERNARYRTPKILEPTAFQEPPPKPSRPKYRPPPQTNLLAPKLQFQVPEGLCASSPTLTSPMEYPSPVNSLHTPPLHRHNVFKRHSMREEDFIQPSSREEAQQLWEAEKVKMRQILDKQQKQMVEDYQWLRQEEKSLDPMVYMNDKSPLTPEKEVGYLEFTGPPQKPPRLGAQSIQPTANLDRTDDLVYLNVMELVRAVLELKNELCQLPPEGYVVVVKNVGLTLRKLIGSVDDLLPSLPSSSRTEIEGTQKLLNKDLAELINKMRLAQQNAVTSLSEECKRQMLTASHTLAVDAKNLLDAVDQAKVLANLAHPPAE
Assay: Kinase Profiling Assay
Assay type: biochemical
Conditions: 100 μM peptide
Give the number; % is assumed, so skip it.

sequence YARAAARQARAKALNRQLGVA (Mammalian) [MMI-0200] , Pyk2(h) % activity observed: 127

sequence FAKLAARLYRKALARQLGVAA [MMI-0300] , Pyk2(h) % activity observed: 47

sequence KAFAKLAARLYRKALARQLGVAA [MMI-0400] , Pyk2(h) % activity observed: 34

sequence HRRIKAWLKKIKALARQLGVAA (Mammalian) [MMI-0500] , Pyk2(h) % activity observed: 46

###

Target: PKCϵ(h) (Homo sapiens, UniProt Q02156)
Sequence (Q02156 1-737): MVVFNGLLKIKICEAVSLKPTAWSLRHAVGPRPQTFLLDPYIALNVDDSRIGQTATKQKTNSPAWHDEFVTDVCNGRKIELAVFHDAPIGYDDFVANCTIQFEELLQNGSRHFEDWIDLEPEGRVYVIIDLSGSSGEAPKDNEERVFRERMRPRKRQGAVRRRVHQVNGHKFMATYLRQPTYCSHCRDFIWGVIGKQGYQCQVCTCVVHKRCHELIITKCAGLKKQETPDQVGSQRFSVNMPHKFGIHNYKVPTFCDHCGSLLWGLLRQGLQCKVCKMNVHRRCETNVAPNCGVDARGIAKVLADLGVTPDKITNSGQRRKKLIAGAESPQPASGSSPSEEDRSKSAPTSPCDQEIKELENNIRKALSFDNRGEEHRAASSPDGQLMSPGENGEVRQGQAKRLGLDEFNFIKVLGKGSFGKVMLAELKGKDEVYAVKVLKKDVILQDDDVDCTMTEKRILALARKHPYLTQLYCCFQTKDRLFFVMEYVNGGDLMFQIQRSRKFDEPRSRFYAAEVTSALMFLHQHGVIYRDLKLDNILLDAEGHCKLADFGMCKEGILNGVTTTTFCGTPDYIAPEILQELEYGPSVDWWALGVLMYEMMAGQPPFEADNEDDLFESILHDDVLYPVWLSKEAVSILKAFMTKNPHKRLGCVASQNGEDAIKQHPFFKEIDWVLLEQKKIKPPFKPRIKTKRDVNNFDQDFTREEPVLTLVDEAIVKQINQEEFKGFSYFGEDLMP
Assay: Kinase Profiling Assay
Type: biochemical
Conditions: 100 μM peptide
measurement_type: PKCϵ(h) % activity (%)
Give the number; % is assumed, so skip it.

sequence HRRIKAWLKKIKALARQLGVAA (Mammalian) [MMI-0500] , PKCϵ(h) % activity observed: 23

sequence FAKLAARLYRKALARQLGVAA [MMI-0300] , PKCϵ(h) % activity observed: 79

sequence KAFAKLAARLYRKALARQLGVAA [MMI-0400] , PKCϵ(h) % activity observed: 59

sequence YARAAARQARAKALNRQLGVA (Mammalian) [MMI-0200] , PKCϵ(h) % activity observed: 98

###

Biological target: NEK6(h) (Homo sapiens, UniProt Q9HC98)
Sequence (Q9HC98 whole entry): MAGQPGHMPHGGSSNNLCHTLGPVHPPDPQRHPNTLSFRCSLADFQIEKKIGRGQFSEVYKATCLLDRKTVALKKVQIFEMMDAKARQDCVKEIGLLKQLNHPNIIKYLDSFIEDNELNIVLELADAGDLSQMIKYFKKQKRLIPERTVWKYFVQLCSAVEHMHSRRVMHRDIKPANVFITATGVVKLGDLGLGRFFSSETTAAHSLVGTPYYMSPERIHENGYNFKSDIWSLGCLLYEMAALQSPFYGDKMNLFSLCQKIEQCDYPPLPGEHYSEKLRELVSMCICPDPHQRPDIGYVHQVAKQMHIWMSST
Assay: Kinase Profiling Assay
Assay type: biochemical
Conditions: 100 μM peptide
measurement_type: NEK6(h) % activity
Report the figure along with its unit, number first.

sequence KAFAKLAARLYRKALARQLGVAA [MMI-0400] , NEK6(h) % activity observed: 85%

sequence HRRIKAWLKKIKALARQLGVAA (Mammalian) [MMI-0500] , NEK6(h) % activity observed: 49%

sequence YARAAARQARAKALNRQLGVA (Mammalian) [MMI-0200] , NEK6(h) % activity observed: 98%

sequence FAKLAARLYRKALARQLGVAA [MMI-0300] , NEK6(h) % activity observed: 82%
